Can you tell me inhibition for the items I'm about to list?
Target: Uracil-DNA glycosylase (Homo sapiens)
Conditions: Compound Concentration 10.0 uM, Hit No
Description: Inhibition of UNG by quantifying inhibition of UNG-mediated cleavage and dissociation of quenched duplex DNA oligonucleotides, measured as fluorescence at 594 nm. To generate a functional strand incision and increase turn-over this assay is coupled to APE1.
Where a SMILES comes first, the peptide text is derived from it. Bridges are numbered along the chain shown (N, C = ends). [ ]: non-standard residue; d: D form. Orn = NCCC[C@H](N)C(=O)O; Mpa = O=C(O)CCS
Numbers only, in %.

Reference set (2 entries):
Form: Entry = "CN([C@@H]1CCc2c(CC(=O)O)c3cc(S(C)(=O)=O)ccc3n2C1)S(=O)(=O)c1ccc(F)cc1" | System = Uracil-DNA glycosylase (Homo sapiens) | inhibition = ____
2.31

Form: Entry = "Cc1cn([C@H](C)CC#N)c(=O)c2cc(Cn3nc(C(F)F)cc3Cl)nn12" | System = Uracil-DNA glycosylase (Homo sapiens) | inhibition = ____;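 further: UNG excision on a quenched double-stranded DNA oligo probe, with APE1 added for strand incision and turnover, read as fluorescence at 594 nm as strands separate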
1.83

Batch request: inhibition for each of the following molecules.
1. O=C(NCCNCC(O)COc1ccc(O)cc1)N1CCOCC1 (stereo not given)
2. CNCc1ccccc1-c1csc([C@@H](C)Nc2nc(C)nc3cc(OC)c(OC)cc23)c1
3. CC(C)(C)c1ccc2c(c1)CC[C@H]2NC(=O)Nc1cccc2[nH]ncc12
4. Cc1cn([C@@H](C)CC#N)c(=O)c2cc(Cn3nc(C(F)F)cc3Cl)nn12
5. Cc1nc(NC(=O)N2CCC[C@H]2C(N)=O)sc1-c1ccnc(C(C)(C)C(F)(F)F)c1

1: -5.67; 2: 14.2; 3: -4.28; 4: 2.85; 5: 2.95

Batch request: inhibition for each of the following molecules.
1. COc1cc(C)c(Sc2cnc(NC(=O)c3ccc(CNC(C)C(C)(C)C)cc3)s2)cc1C(=O)N1CCN(C(C)=O)CC1 (stereo not given)
2. CC#CC(=O)N1CCC[C@H]1c1nc(-c2ccc(C(=O)Nc3ccccn3)cc2)c2c(N)nccn12
3. O=C(O)CCc1ccc(NCc2cccc(Oc3ccccc3)c2)cc1
4. Cc1cc(NC(=O)Nc2ccccc2)n(-c2ccccc2)n1
5. CN1CCC(c2c[nH]c3ccc(O)cc23)CC1

1. 4.76
2. 4.65
3. -1.29
4. 1.74
5. -5.58

Batch request: inhibition for each of the following molecules.
1. Cc1ccccc1N1CCN(S(=O)(=O)C[C@]23CC[C@H](C[C@@H]2NC(=O)[C@@H](N)CCS(C)(=O)=O)C3(C)C)CC1
2. Clc1ccc2nsnc2c1NC1=NCCN1
3. CCOc1ccc(C[C@H]2NC(=O)CCSSC[C@@H](C(=O)N3CCC[C@H]3C(=O)N[C@@H](CCCN)C(=O)NCC(N)=O)NC(=O)[C@H](CC(N)=O)NC(=O)[C@H]([C@@H](C)O)NC(=O)[C@H]([C@@H](C)CC)NC2=O)cc1 ([Mpa][dY](Et)ITNCP[Orn]G-NH2; disulfide 1-6)

-9.38
-7.76
-8.02

Batch request: inhibition for each of the following molecules.
1. CN1C[C@H](C(=O)N[C@]2(C)O[C@@]3(O)[C@@H]4CCCN4C(=O)[C@H](Cc4ccccc4)N3C2=O)C[C@@H]2c3cccc4[nH]cc(c34)C[C@H]21
2. CO[C@H]1CC[C@H](CNc2ccc(S(=O)(=O)NC(=O)c3ccc(N4CCN(CC5=C(c6ccc(Cl)cc6)CC(C)(C)CC5)CC4)cc3Oc3cnc4[nH]ccc4c3)cc2[N+](=O)[O-])CC1
3. COc1cc(NC(=O)c2ccc(-c3ccc(Cl)cc3)o2)cc(OC)c1
4. CC1(C)CCC(C)(C)c2cc(C(=O)Nc3ccc(C(=O)O)cc3)ccc21
5. COc1cc(C(=O)NS(=O)(=O)c2ccccc2C)ccc1Cc1cn(C)c2ccc(NC(=O)OC3CCCC3)cc12
6. CNC(=O)Nc1ccc(-c2nc(N3CC4CCC(C3)O4)c3cnn(C4CCC5(CC4)OCCO5)c3n2)cc1
7. O=C(O)CCC/C=C\CC1C(O)CC(O)C1/C=C/C(O)COc1cccc(Cl)c1 (stereo not given)

-3.4
3.44
3.14
5.57
7.14
6.27
-7.78

###

Molecular target: Adenine DNA glycosylase (Homo sapiens);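 further: human MUTYH activity read as 594 nm fluorescence from cleavage and release of a quenched DNA duplex, coupled with APE1 for strand incision, lower signal meaning inhibition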
Conditions: Compound Concentration 10.0 uM, Hit No
Description: Inhibition of MUTYH by quantifying inhibition of MUTYH-mediated cleavage and dissociation of quenched duplex DNA oligonucleotides, measured as fluorescence at 594 nm. To generate a functional strand incision and increase turn-over this assay is coupled to APE1.
Assign class by inhibition: not lower than 10% means TRUE; lower than 10% means FALSE.

Is reported inhibition greater than or equal to 10% here: "NC1(c2ccc(-c3nc4ccn5c(=O)[nH]nc5c4cc3-c3ccccc3)cc2)CCC1"
TRUE

Is reported inhibition greater than or equal to 10% here: "CC(/C=C1\SC(=S)N(CCCC(=O)Nc2ccc(C(=O)O)c(O)c2)C1=O)=C\c1ccccc1"
TRUE

Is reported inhibition greater than or equal to 10% here: "CN[C@@H]1CCc2[nH]c3ccc(C(N)=O)cc3c2C1"
FALSE

Is reported inhibition greater than or equal to 10% here: "COc1ccc(S(=O)(=O)c2cc(OC)ccc2S(=O)(=O)c2ccc([C@H](C)NS(C)(=O)=O)cc2)cc1"
TRUE

Is reported inhibition greater than or equal to 10% here: "Cc1nc(C#Cc2ccnc(Cl)c2)c(C)n1-c1ccc(OC(F)(F)F)cc1"
TRUE

Is reported inhibition greater than or equal to 10% here: "O=C(NCCCN1CCOC1=O)c1cnc(NCc2cc(Br)ccc2Br)nc1NC1CCCC1"
FALSE

Is reported inhibition greater than or equal to 10% here: "CC(C)C[C@@H](C(=O)N[C@@H](Cc1ccc(OCc2ccccc2)cc1)C(=O)NC(C)(C)C)N(C)Cc1ccc(C(C)(C)C)cc1"
FALSE

###

Target: DNA-3-methyladenine glycosylase (Homo sapiens) (UniProt P29372);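 further: enzyme assay where MPG cuts a quenched duplex DNA oligonucleotide probe, paired with APE1 for strand incision and turnover, read as fluorescence at 594 nm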
Sequence (P29372 whole entry): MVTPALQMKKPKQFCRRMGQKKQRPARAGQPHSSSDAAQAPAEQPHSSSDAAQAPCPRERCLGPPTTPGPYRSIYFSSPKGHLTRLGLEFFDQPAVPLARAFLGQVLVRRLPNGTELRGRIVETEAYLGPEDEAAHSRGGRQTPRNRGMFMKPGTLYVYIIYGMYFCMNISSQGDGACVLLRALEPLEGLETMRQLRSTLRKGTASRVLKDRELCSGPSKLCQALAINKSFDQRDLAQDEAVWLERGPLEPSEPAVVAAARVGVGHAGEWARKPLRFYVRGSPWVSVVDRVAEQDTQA
Conditions: Compound Concentration 10.0 uM, Hit Yes
Description: Inhibition of MPG by quantifying inhibition of MPG-mediated cleavage and dissociation of quenched duplex DNA oligonucleotides, measured as fluorescence at 594 nm. To generate a functional strand incision and increase turn-over this assay is coupled to APE1.
Can you tell me inhibition for the items I'm about to list?
Answers are plain numbers, in %.

Reference set (3 entries):
I'd like to know its inhibition. The compound in question is "COc1ccc(NC(=O)c2ccc(-c3ccc(-c4noc(C)n4)cc3C)cc2)cc1OCCN(C)C"
83.7

I'd like to know its inhibition. The compound in question is "CCc1ccc(OCc2ccccc2C(=O)Nc2ccc3nc(C)cc(N)c3c2)cc1"
71.5

I'd like to know its inhibition. The compound in question is "CCCCCNC(=N)N/N=C/c1c[nH]c2ccc(OC)cc12"
108

Batch request: inhibition for each of the following compounds.
1. CN1CCN(c2ccc(Nc3c4ccccc4nc4ccccc34)cc2)CC1
2. CCCCCCNC(=O)Nc1ccc(S(=O)(=O)Nc2ccc(CCNC[C@H](O)COc3ccc(O)cc3)cc2)cc1

[90.3, 105]

###

Molecular target: Methyl-CpG-binding domain protein 4 (Homo sapiens) (UniProt O95243)
Sequence (O95243 whole entry, the tested form may be a part): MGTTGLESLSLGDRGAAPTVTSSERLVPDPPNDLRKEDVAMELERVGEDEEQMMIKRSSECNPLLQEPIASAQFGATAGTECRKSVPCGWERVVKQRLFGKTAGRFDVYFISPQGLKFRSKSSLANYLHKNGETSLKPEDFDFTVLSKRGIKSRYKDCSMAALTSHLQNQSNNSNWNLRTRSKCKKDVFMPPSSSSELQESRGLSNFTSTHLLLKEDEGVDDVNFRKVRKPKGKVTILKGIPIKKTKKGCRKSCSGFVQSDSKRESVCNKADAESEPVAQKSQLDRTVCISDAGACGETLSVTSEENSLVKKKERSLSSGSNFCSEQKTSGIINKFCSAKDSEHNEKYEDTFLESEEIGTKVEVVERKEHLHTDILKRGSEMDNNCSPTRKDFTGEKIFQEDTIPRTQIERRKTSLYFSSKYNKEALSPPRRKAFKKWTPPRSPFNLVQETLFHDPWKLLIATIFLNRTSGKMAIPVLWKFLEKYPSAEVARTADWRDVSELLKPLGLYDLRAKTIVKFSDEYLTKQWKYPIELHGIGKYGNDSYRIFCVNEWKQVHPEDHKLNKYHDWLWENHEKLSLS
Conditions: Compound Concentration 10.0 uM, Hit No
Description: Inhibition of MBD4 by quantifying inhibition of MBD4-mediated cleavage and dissociation of quenched duplex DNA oligonucleotides, measured as fluorescence at 594 nm. To generate a functional strand incision and increase turn-over this assay is coupled to APE1.
OBSERVED PROPERTY: inhibition (%)
Answers are plain numbers, in %.

Form: Entry = "CCCCC(=O)N(Cc1ccc(-c2ccccc2C(=O)O)cc1)c1ccccc1" | System = Methyl-CpG-binding domain protein 4 (Homo sapiens) (UniProt O95243) | inhibition = ____
33.4

Form: Entry = "COc1cc2c(cc1CC=C(C)C)C(=O)C[C@@H](c1ccc(O)cc1)O2" | System = Methyl-CpG-binding domain protein 4 (Homo sapiens) (UniProt O95243) | inhibition = ____
61.9

Form: Entry = "Cc1cccc(-c2cnc3occ(-c4ccc(C(=O)O)c(C5CCCC5)c4)c3c2)c1" | System = Methyl-CpG-binding domain protein 4 (Homo sapiens) (UniProt O95243) | inhibition = ____;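 further: MBD4 activity read as fluorescence at 594 nm from cleavage and release of a quenched duplex DNA oligonucleotide, with APE1 coupled to incise the strand and raise turnover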
33

Batch request: inhibition for each of the following compounds.
1. CC(C)C[C@@H](NC(=O)[C@H](Cc1ccccc1)NC(=O)CNC(=O)[C@@H](C)NC(=O)[C@@H](N)Cc1ccc(O)cc1)C(=O)O
2. COC[C@H](O)Cn1c(=O)cnn(-c2ccc(Cl)c(C(=O)NCC3(O)CCCCCC3)c2)c1=O
3. COc1ccccc1N1CCN(CCCCNC(=O)c2ccc3ccccc3c2)CC1
4. C[C@@H]1CN(c2ncc(Cl)c(Nc3ccc4c(c3)n(CCC(C)(C)O)c(=O)n4C)n2)C[C@H](C)C1(F)F
5. Cc1nccn1CC1CCc2c(c3ccccc3n2C)C1=O (centres undefined)
6. Cc1nc(C2CCN(C(=O)c3ccc(OC(F)(F)F)cc3N)CC2)c2ncc(N3CCN(C)CC3)cc2n1

1. 20
2. 2.28
3. 0.789
4. 66.3
5. 17
6. 30.1

###

Molecular target: Endonuclease 8-like 2 (Homo sapiens) (UniProt Q969S2);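 further: fluorescence at 594 nm reports NEIL2 cutting and release of a quenched double-stranded DNA oligo substrate, reduced signal read as inhibition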
Sequence (whole entry): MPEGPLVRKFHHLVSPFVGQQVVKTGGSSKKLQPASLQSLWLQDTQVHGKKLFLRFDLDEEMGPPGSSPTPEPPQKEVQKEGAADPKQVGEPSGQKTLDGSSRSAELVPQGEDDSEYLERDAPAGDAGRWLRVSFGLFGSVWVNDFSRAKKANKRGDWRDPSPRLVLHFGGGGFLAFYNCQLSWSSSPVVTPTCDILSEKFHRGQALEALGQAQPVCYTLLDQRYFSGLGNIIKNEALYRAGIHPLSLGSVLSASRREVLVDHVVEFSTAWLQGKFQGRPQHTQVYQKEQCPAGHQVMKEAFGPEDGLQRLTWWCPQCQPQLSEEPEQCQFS
Conditions: Compound Concentration 1.0 uM, Hit No
Description: Inhibition of NEIL2 by quantifying inhibition of NEIL2-mediated cleavage and dissociation of quenched duplex DNA oligonucleotides, measured as fluorescence at 594 nm.
OBSERVED PROPERTY: inhibition (%)
Answers are plain numbers, in %.

Reference set (5 entries):
I'd like to know its inhibition. The molecule in question is "CCOC(=O)c1cc2cc(-c3cc(C(=O)NCc4ccc(C(=O)O)cc4)nn3C)ccc2[nH]1"
11.2

I'd like to know its inhibition. The molecule in question is "COc1ncc(-c2ccc3nccc(-c4ccnnc4)c3c2)cc1NS(=O)(=O)c1ccc(F)cc1F"
15.6

I'd like to know its inhibition. The molecule in question is "NC1(c2ccc(-c3nc4c(O)ccnn4c3-c3ccccc3)cc2)CCC1"
-0.489

I'd like to know its inhibition. The molecule in question is "COc1cccc(-c2nccc3c2CN(c2ccccc2)C3=O)c1"
7.16

I'd like to know its inhibition. The molecule in question is "O=C(NCc1ncc(C(F)(F)F)cc1Cl)c1ccc2c(c1)C1(CCS(=O)(=O)CC1)[C@H](C1CC1)N2S(=O)(=O)c1ccc(F)cc1"
-0.744

Batch request: inhibition for each of the following molecules.
1. COc1ccc2cc(OCC3(C(=O)O)CN(C(=O)c4ccc(F)cc4)C3)ccc2c1
2. CCN1CCN(c2ccc(Nc3cc(N(C)C(=O)Nc4c(Cl)c(OC)cc(OC)c4Cl)ncn3)cc2)CC1
3. Cc1c(Oc2ccc(F)cc2)c(OC(C)C)nn1-c1ccc(C2CC2)cn1
4. CC[C@@H]1[C@H](F)C(=O)N[C@@H]1COc1nccc2cc(C(N)=O)c(OC)cc12

1: -2.53; 2: -7.84; 3: 1.55; 4: -7.57
